For each of the compounds below, state its inhibition.
Molecular target: Dual specificity protein phosphatase 6 (Homo sapiens) (UniProt Q16828)
Sequence (Q16828 whole entry, looked up): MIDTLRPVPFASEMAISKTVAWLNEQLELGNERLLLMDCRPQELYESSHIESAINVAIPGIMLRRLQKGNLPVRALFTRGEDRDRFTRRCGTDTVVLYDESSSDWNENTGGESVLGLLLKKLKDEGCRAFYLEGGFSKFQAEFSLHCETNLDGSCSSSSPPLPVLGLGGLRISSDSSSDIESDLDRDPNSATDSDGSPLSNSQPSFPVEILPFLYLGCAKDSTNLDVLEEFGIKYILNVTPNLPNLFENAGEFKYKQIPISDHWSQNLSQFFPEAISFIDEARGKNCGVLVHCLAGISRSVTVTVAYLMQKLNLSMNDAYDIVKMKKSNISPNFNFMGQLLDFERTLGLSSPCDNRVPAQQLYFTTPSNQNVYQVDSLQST
Assay: DUSP6 inhibitors restoring Erk phosphorylation by chemical complementation, primary imaging in DUSP6-transfected HeLa (AID 609);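 further: phospho-Erk level distribution per well compared with pooled transfected vehicle control wells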
Details: HeLa MKP-3 transfected, phospho-Erk imaging KS statistic; at 10 µM; active compounds read high; cells stimulated with TPA for 15 min
Please reply with the bare figure in % and do not write the unit itself.

Input line: Endpoint output: inhibition of CNC[C@H](O)c1cccc(O)c1 . Value?
Output line: 14.6

Input line: Reported inhibition for OC[C@H]1O[C@@H](n2cnc3c(NC4CCCC4)ncnc32)[C@H](O)[C@@H]1O : what is it?
Output line: 11.3

Input line: # input compound: COc1cc(/C=N/n2c(C)nnc2C)cc(OC)c1OC ; wanted: its inhibition
Output line: -1.75

Input line: Entry COc1ccccc1-n1c(=O)c2c3c(sc2n2c(SC)nnc12)CCC3 : reported inhibition = ?
Output line: -0.608

Input line: What value of inhibition has been reported for the following compound? CCCCNC(=O)N(C)c1nncnc1C(=O)NC
Output line: -7.28

Input line: Name the reported inhibition value associated with the compound CN(C)c1ccc(-c2nn3c(-c4ccc(Cl)cc4)nnc3s2)cc1
Output line: 19.1
